These entries and their values trace back to the RNAGym collection of RNA variant scans (doi:10.7554/elife.90254).

Please go through the items and note down their self-cleavage.
B1: OR4K15 (parent)
chain: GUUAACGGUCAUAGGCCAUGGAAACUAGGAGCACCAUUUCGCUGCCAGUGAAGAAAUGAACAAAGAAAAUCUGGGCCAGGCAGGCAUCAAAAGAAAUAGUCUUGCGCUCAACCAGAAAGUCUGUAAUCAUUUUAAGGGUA

Variants of: B1
assay overview: self-cleavage, relative activity (ratio to wild type); higher = more cleavage; in vitro, sequencing; the parent is a self-cleaving ribozyme

*Q* Fill in self-cleavage for record U39A U100C
*A* 2.25

*Q* Identify measured self-cleavage associated with U19C A59G
*A* 1.55

*Q* Please supply the value of reported self-cleavage for the item G41U A68G
*A* 1.46

*Q* Fill in self-cleavage for record A95G U102A
*A* 2.24

*Q* Assign self-cleavage to the following record: U38C G93A
*A* 2.41

*Q* Report measured self-cleavage; entry is C40U U132A
*A* 1.27

*Q* Identify measured self-cleavage associated with G44U A95G
*A* 1.73

*Q* // Input: U100C A111C . Output its self-cleavage only.
*A* 0.01

*Q* Assign self-cleavage to the following record: U12A A56G
*A* 1.58

*Q* Using the record for U122C A125C , state its measured self-cleavage.
*A* 0.72

*Q* Could you please provide reported self-cleavage for U132C G138U ? Thanks!
*A* 1.54

*Q* Return the recorded self-cleavage value; entry: A54G A129C
*A* 0.76

*Q* Complete the entry with self-cleavage for A95G A116G
*A* 1.88

*Q* For the variant U2C U108C , give its reported self-cleavage.
*A* 0.03

*Q* Provide self-cleavage value for the following variant: C76G A96U
*A* 0.09

*Q* Supply reported self-cleavage belonging to this variant: A13G A62G
*A* 1.25

*Q* State its self-cleavage for this variant: U38A A56G
*A* 0.94

*Q* Item U57C U70C : provide self-cleavage
*A* 0.47

*Q* Please look at this variant and report its self-cleavage: A96C A140U
*A* 1.14

*Q* Give the reported value of self-cleavage for this record: A82G G123A
*A* 0.75

*Q* Identify the reported self-cleavage for the following entry. "G8C"
*A* 1.16

*Q* Please look at this variant and report its self-cleavage: A18U A117U
*A* 0.76

*Q* Return self-cleavage (reported value) for this variant: G41C A51C
*A* 0.71

*Q* Using the record for G44A U102C , state its measured self-cleavage.
*A* 2.14

*Q* Please indicate self-cleavage recorded for U39C G106A
*A* 0.01

*Q* Name the recorded self-cleavage of the variant listed here: G74A U103C
*A* 0.08

*Q* Supply measured self-cleavage of "U3A" in your reply.
*A* 1

*Q* Return self-cleavage for the following variant: A129C U133A
*A* 1.68

*Q* Given G31A U132C , respond with its self-cleavage.
*A* 1.72

*Q* Please report the measured self-cleavage for U120A A140U
*A* 1.67

*Q* For the variant "U108A" , give its reported self-cleavage.
*A* 0.02

*Q* Name the recorded self-cleavage of the variant listed here: U39A A69G
*A* 1.5

*Q* Please report the measured self-cleavage for G7A A140U
*A* 1.62
